method.description: Quantitative High-Throughput drug screen in 47 multiple myeloma cell lines against the NCATS MIPE library collection: Karpas620_DSMZ cell viability assay (AID 1918959); further: nearly all actives have a fitted effect of over 30% in size
setup.conditions: Karpas620 myeloma viability, CellTiter-Glo ATP luminescence, 48 h; series mostly up to 45.8 µM
Records with an inconclusive call do not appear. Activity calls are given as the source filed them. The call rests on the fitted dose curve; in most records, active means well fitted cell-killing curve with a large enough effect; inconclusive means small, poorly fitted or top-dose-only effect, or effect the other way; inactive means no such curve, though single readings can be large or run the other way.
Outcome codes: active, inactive

compound	group
C[C@@H]1[C@@H](CC(C[C@H]2O[C@@H]3O[C@]4(C)CC[C@@H]5[C@H](C)CC[C@@H]([C@H]2C)[C@@]35OO4)C[S+](=O)([O-])c2ccc(COC(=O)N(C)C)cc2)O[C@@H]2O[C@]3(C)CC[C@H]4[C@H](C)CC[C@@H]1[C@@]24OO3 (some centres undefined)	active
Cc1sc2c(c1C)C(c1ccc(Cl)cc1)=N[C@@H](CC(=O)OC(C)(C)C)c1nnc(C)n1-2	active
C[C@@H]1O[C@@H](O[C@H]2C[C@@H](O)[C@]3(CO)[C@H]4[C@H](O)C[C@]5(C)[C@@H](C6=CC(=O)OC6)CC[C@]5(O)[C@@H]4CC[C@]3(O)C2)[C@H](O)[C@H](O)[C@H]1O	active
CC(C)CC(N(C)C)C1(c2ccc(Cl)cc2)CCC1 (centres undefined)	inactive
O=C1CC[C@@]2(O)[C@H]3Cc4ccc(O)c5c4[C@@]2(CCN3CC2CC2)[C@H]1O5	inactive
Cn1cc(C2=C(c3cn(C4CCN(Cc5ccccn5)CC4)c4ccccc34)C(=O)NC2=O)c2ccccc21	active
COc1ccc(C(CN(C)C)C2(O)CCCCC2)cc1 (centres undefined)	inactive
CN(C)[C@@H]1C(=O)C(C(N)=O)=C(O)[C@@]2(O)C(=O)C3=C(O)c4c(O)cccc4[C@@](C)(O)[C@H]3C[C@@H]12	inactive
O=C(O)C(=O)c1cn(Cc2ccccc2)c2ccc(-c3ccc(OC(F)(F)F)cc3)cc12	inactive

Sourced from PubChem BioAssay (NCATS)
